- Procedure summary: Binding affinity to CypD (unknown origin)
Observed property: Ki (nM)

Molecular string | Observed property | Assay result
O=C(Nc1ccc2nc(-c3ccco3)c(-c3ccco3)nc2c1)N1CCCC1 | Ki | 2000

Data provenance is BindingDB's records for PubMed 27409354.
